The values you see were collected from ChEMBL document CHEMBL1122232.

- assayNotes: Lethal dose in guinea pig
- Assay type: toxicity, organism-based, Cavia porcellus
- conditionParameters: in vivo
Each record's LD50 is compared with bin 1 = under 0.2 mg/kg, bin 2 = from 0.2 mg/kg up to 0.4 mg/kg, bin 3 = 0.4 mg/kg and over to give its class.

Please review the following examples before continuing.
compound	classLabel
CCCCCC(=O)O[C@@H]1C2CCC3[C@@](C)(O)C4CC(O)C(C)(C)C4(O)C(O)C[C@]31C[C@@]2(C)O (some centres not stated)	bin 2
CC1(C)C(O)CC2C1(O)C(O)C[C@]13C[C@@](C)(O)C(CCC1[C@@]2(C)O)[C@H]3OC(=O)c1ccccc1 (some centres not stated)	bin 3
CCCC(=O)O[C@@H]1C2CCC3[C@@](C)(O)C4CC(O)C(C)(C)C4(O)C(O)C[C@]31C[C@@]2(C)O (some centres not stated)	bin 1
CCC(=O)O[C@@H]1C2CCC3[C@@](C)(O)C4CC(O)C(C)(C)C4(O)C(O)C[C@]31C[C@@]2(C)O (some centres not stated)	bin 1
CC1(C)C(O)CC2C1(O)C(O)C[C@]13C[C@@](C)(O)C(CCC1[C@@]2(C)O)[C@H]3O (some centres not stated)	bin 3
CCCCC(=O)O[C@@H]1C2CCC3[C@@](C)(O)C4CC(O)C(C)(C)C4(O)C(O)C[C@]31C[C@@]2(C)O (some centres not stated)	bin 1
CC(=O)O[C@@H]1C2CCC3[C@@](C)(O)C4CC(O)C(C)(C)C4(O)C(O)C[C@]31C[C@@]2(C)O (some centres not stated)	bin 3
CC(O)C(=O)O[C@@H]1C2CCC3[C@@](C)(O)C4CC(O)C(C)(C)C4(O)C(O)C[C@]31C[C@@]2(C)O (some centres not stated)	bin 1

## Input Any idea which band CC1(C)C(O)CC2C1(O)C(O)C[C@]13C[C@@](C)(O)C(CCC1[C@@]2(C)O)[C@H]3OC(=O)CCCl (some centres not stated) is in?
## Output bin 1

## Input And then CC1(C)C(O)CC2C1(O)C(O)C[C@]13C[C@@](C)(O)C(CCC1[C@@]2(C)O)[C@H]3OC(=O)C1CCCCC1 (some centres not stated) , what is it?
## Output bin 2

## Input And then CC(C)(C)C(=O)O[C@@H]1C2CCC3[C@@](C)(O)C4CC(O)C(C)(C)C4(O)C(O)C[C@]31C[C@@]2(C)O (some centres not stated) , what is it?
## Output bin 2
